- System: LOX IMVI
- assay: NCI tumour cell line growth inhibition, 48 h
Activity calls are given as the source filed them. No stated cut-off is given here; in the data, active = GI50 up to about 1.1 µM and inactive = higher.
Exercise: state measured GI50 for each of the compounds provided.

Query string: Jot down GI50 (LOX IMVI) of CCOc1ccc(/N=N/S(=O)(=O)O)cc1 .
Result string: > 100 µM (inactive)

Query string: Jot down GI50 (LOX IMVI) of CC12CCC(C(=O)n3c1nc1ccccc13)C(C)(C)O2 (stereo not given) .
Result string: > 100 µM (inactive)

Query string: Jot down GI50 (LOX IMVI) of O=C(CCc1nnc(S)[nH]1)Nc1ccccc1Cl .
Result string: > 100 µM (inactive)

Query string: Jot down GI50 (LOX IMVI) of COc1nc(C(Cl)(Cl)Cl)c(Cl)c(O)c1Cl .
Result string: > 100 µM (inactive)

Query string: Jot down GI50 (LOX IMVI) of O=c1nc(NC(c2ccccc2)(c2ccccc2)c2ccccc2)ccn1CCNCCn1ccc(NC(c2ccccc2)(c2ccccc2)c2ccccc2)nc1=O .
Result string: 2.84 µM (inactive)

Query string: Jot down GI50 (LOX IMVI) of CN(c1ccccc1Cl)S(=O)(=O)c1ccc([N+](=O)[O-])cc1 .
Result string: > 100 µM (inactive)

Query string: Jot down GI50 (LOX IMVI) of N#CC12CC=C(c3ccccc3)N=C1NC(c1ccccc1)=CC2 (stereo not given) .
Result string: 30.8 µM (inactive)

Query string: Jot down GI50 (LOX IMVI) of COC(=O)C(Cc1ccccc1)NC(=O)C(CCC(=O)OCc1ccccc1)NC(=O)OC(C)(C)C (stereo not given) .
Result string: 30.3 µM (inactive)

Query string: Jot down GI50 (LOX IMVI) of C=CCSC1=N/C(=C\c2ccccc2)C(=O)N1CC=C .
Result string: 26.4 µM (inactive)

Query string: Jot down GI50 (LOX IMVI) of Clc1ccc2[nH]c(CC3CCCC3)nc2c1 .
Result string: 15.8 µM (inactive)

----------
- System: MDA-N
- assay: NCI tumour cell line growth inhibition, 48 h
Calls of active or inactive are those of the source. Rule as the data show it: active = GI50 up to about 1.1 µM and inactive = higher.
measured_quantity: GI50

Query string: Jot down GI50 (MDA-N) of COC(=O)C1(C)CCC(c2ccc(C)cc2)=C(CC(=O)O)C1 (centres undefined) .
Result string: > 100 µM (inactive)

Query string: Jot down GI50 (MDA-N) of COc1cc(/C=C/C(=O)O)ccc1OS(=O)(=O)O .
Result string: > 100 µM (inactive)

Query string: Jot down GI50 (MDA-N) of CC(OCc1ccccc1)C(NC(=O)C1CSSCC(NC(=O)C(Cc2ccccc2)NC(=O)OCc2ccccc2)C(=O)NC(Cc2ccccc2)C(=O)NC(Cc2cn(C=O)c3ccccc23)C(=O)NC(CCCCNC(=O)OCc2ccccc2)C(=O)NC(C(C)OCc2ccccc2)C(=O)N1)C(N)=O (centres undefined) .
Result string: 24.2 µM (inactive)

Query string: Jot down GI50 (MDA-N) of CC(C)(CC(O)C#N)/[N+]([O-])=[N+](\[O-])C(C)(C)CC(O)C#N (centres undefined) .
Result string: 20.7 µM (inactive)

Query string: Jot down GI50 (MDA-N) of CN1C(=O)c2c(c3c4ccccc4n(C4OC(CO)C(O)C(O)C4O)c3c3[nH]c4ccccc4c23)C1=O (centres undefined) .
Result string: 2.14 µM (inactive)

Query string: Jot down GI50 (MDA-N) of CCOc1ccc(/N=C/c2ccnc3ccccc23)cc1 .
Result string: 30.1 µM (inactive)

Query string: Jot down GI50 (MDA-N) of COc1nc2c(c(=O)n1C)N[C@H]1[C@H](OC(C)=O)[C@@H](OC(C)=O)CO[C@H]1N2 .
Result string: > 100 µM (inactive)

Query string: Jot down GI50 (MDA-N) of COc1cccc2cc(C(=O)Nc3ccccn3)c(=N)oc12 .
Result string: 82.2 µM (inactive)

Query string: Jot down GI50 (MDA-N) of Brc1ccc2[nH]cc(-c3csc(-c4c[nH]c5ccccc45)n3)c2c1 .
Result string: 2.88 µM (inactive)

Query string: Jot down GI50 (MDA-N) of N=C(N)NS(=O)(=O)c1ccc(NC(=O)c2ccc3nc4ccccc4c(O)c3c2)cc1 .
Result string: > 100 µM (inactive)

Query string: Jot down GI50 (MDA-N) of CCCN1CCC(=O)N(CCC(F)(F)C(F)(F)C(F)(F)C(F)(F)C(F)(F)C(F)(F)F)C1=S .
Result string: > 100 µM (inactive)

Query string: Jot down GI50 (MDA-N) of CN(CC(=O)O)c1ncc2c(n1)-c1ccccc1CC2 .
Result string: > 100 µM (inactive)

Query string: Jot down GI50 (MDA-N) of COC(=O)c1ccccc1/C=C1\Cc2c(ccc3c2CCC3)C1=O .
Result string: > 100 µM (inactive)

Query string: Jot down GI50 (MDA-N) of O=C(O)c1cccc(S(=O)(=O)NN2C(=O)CSC2c2ccccc2Cl)c1 (centres undefined) .
Result string: > 100 µM (inactive)

Query string: Jot down GI50 (MDA-N) of CC12CCC(C(=O)n3c1nc1ccccc13)C(C)(C)O2 (centres undefined) .
Result string: > 100 µM (inactive)

Query string: Jot down GI50 (MDA-N) of NC(=O)N(O)c1cccc(Br)c1 .
Result string: > 100 µM (inactive)

Query string: Jot down GI50 (MDA-N) of O=C(Cc1ccc([N+](=O)[O-])cc1)OCC#CCOC(=O)Cc1ccc([N+](=O)[O-])cc1 .
Result string: > 10 µM (inactive)

Query string: Jot down GI50 (MDA-N) of O=c1c(/C=C/c2c(O)ccc3ccccc23)nnc2sc(-c3cccc([N+](=O)[O-])c3)nn12 .
Result string: 28.7 µM (inactive)

Query string: Jot down GI50 (MDA-N) of NCCCC[C@H](N)C(=O)Nc1ccc(-c2nc3ccccc3s2)cc1 .
Result string: 15.7 µM (inactive)

----------
- System: SF-295
- assay: NCI tumour cell line growth inhibition, 48 h
The source made the active and inactive calls. Cut-off read from the data, not from the text of the source: active = GI50 up to about 1.1 µM and inactive = higher.
Exercise: state measured GI50 for each of the molecules provided.

Query string: Give the measured GI50 for CS(=O)(=O)N(CCC#N)c1ccc(/C=C2\N=C(c3ccccc3Cl)OC2=O)cc1
Result string: > 100 µM (inactive)

Query string: Give the measured GI50 for CC(=O)OC1C2CCC3CC2C2(SCCS2)C31 (stereo not given)
Result string: > 100 µM (inactive)

Query string: Give the measured GI50 for Cn1c2ccccc2n2c(N=O)c(-c3ccccc3)nc12
Result string: 31.1 µM (inactive)

Query string: Give the measured GI50 for COc1ccc(OCC(=O)O)c2c1CCC(C(C)C)C2=O (stereo not given)
Result string: > 100 µM (inactive)

Query string: Give the measured GI50 for COc1ccc(C2=Nn3c(nc4sc5c(c4c3=O)CCCC5)SC2)cc1
Result string: > 100 µM (inactive)

Query string: Give the measured GI50 for c1ccc2c3nc(C4CCCC4)nc-3c(NC3CCCC3)[nH]c2c1
Result string: 16.8 µM (inactive)

Query string: Give the measured GI50 for COc1ccc(OC)c(C[P+](c2ccccc2)(c2ccccc2)c2ccccc2)c1
Result string: 3.96 µM (inactive)

Query string: Give the measured GI50 for O=c1nc(NC(c2ccccc2)(c2ccccc2)c2ccccc2)ccn1CCNCCn1ccc(NC(c2ccccc2)(c2ccccc2)c2ccccc2)nc1=O
Result string: 11.5 µM (inactive)

Query string: Give the measured GI50 for CC(C)[S+]1C2=C(CC(C)(C)CC2=O)[N-]c2ccccc21 (stereo not given)
Result string: > 100 µM (inactive)

Query string: Give the measured GI50 for C=CCSC1=N/C(=C\c2cccs2)C(=O)N1CC=C
Result string: 81.5 µM (inactive)

----------
Exercise: state measured GI50 for each of the compounds provided.
- System: COLO 205
- assay: NCI tumour cell line growth inhibition, 48 h
Calls of active or inactive are those of the source. No stated cut-off is given here; in the data, active = GI50 up to about 1.1 µM and inactive = higher.

Query string: Give the measured GI50 for CC(=O)OC1OC2C(NC(=O)OC(C)(C)C)C1CC2(OCc1ccccc1)OCc1ccccc1 (stereo unspecified)
Result string: 21.7 µM (inactive)

Query string: Give the measured GI50 for CC(=O)OC1C2CCC3CC2C2(SCCS2)C31 (stereo unspecified)
Result string: > 100 µM (inactive)

Query string: Give the measured GI50 for Cc1cccc(N2C(=O)C3c4[nH]c5ccccc5c4C4CCC(C(C)(C)C)CC4C3C2=O)c1 (stereo unspecified)
Result string: 11.9 µM (inactive)

Query string: Give the measured GI50 for COc1cc2oc(-c3ccc(O)cc3)cc(=O)c2c(OC)c1O
Result string: > 100 µM (inactive)

Query string: Give the measured GI50 for CCN(CC)CCn1c(=O)c2c(C)c3oc4ccccc4oc3c(C)c2c1=O
Result string: > 100 µM (inactive)

Query string: Give the measured GI50 for CN(C)C(=S)/N=c1\ssc(=S)n1Cc1ccncc1
Result string: > 100 µM (inactive)

These entries and their values trace back to ChEMBL document CHEMBL1201862.
